Target: T1, HLA-A*0201 loaded with the Carcinoembryonic antigen (CEA)-derived … peptide (biotin on the C-terminal biotinylation tag)
T1 construct: Soluble, biotinylated, immobilised on a streptavidin chip
Test: Biacore SPR
pKd: −log10 of the molar value.
reportedProperty: pKd

SEQ ID NO 54 (receptor, mutated soluble two domain ILT-2) MAGHLPKPTLWAEPGSVITMDQPVTLRCQGGQETQEYRLYREKKTAPWITRIPQELVKKGQFPIPSITWEHAGRYRCYYGSDTSQWSASSDPLELVVTGVYIKPTLSAQPSPVVNSGGNVTLQCDSQVAFDGFILCKEGEDEHPQCLNSQPHARGSSRAIFSVGPVSPSRRWWYRCYAYPIWTPYEWSTSSDLLELDVDG : ≥ 6.00

Attention now shifts to the item below.
Identify the reported pKd for the following entry. SEQ ID NO 22 (receptor, mutated soluble two domain ILT-2) MAGHLPKPTLWAEPGSVITMDQPVTLRCQGGQETQEYRLYREKKTAPWITRIPQELVKKGQFPIPSITWEHAGRYRCYYGSDTSQWSASSDPLELVVTGVYIKPTLSAQPSPVVNSGGNVTLQCDSQVAFDGFILCKEGEDEHPQCLNSQPHARGSSRAIFSVGPVSPSRRWWYRCYAYGRWLPYEWSLPSDLLELDVDG
≥ 6.00
